relative viability overview
Test system: COR-L 105
Test: relative viability (nuclei count vs DMSO), 5 days (fraction); higher = more cells survive
Conditions: first compound 0.03162 µM
API doc: respond with a numeric literal and nothing else, no unit.

Sample records with relative viability:
INSERT INTO measurements (molecule, measured_property, value) VALUES
  ('CC(C)Oc1cc(Nc2nc(N[C@@H](C)c3ccc(F)cn3)ncc2Cl)n[nH]1 [AZ23] + Cc1cc(Nc2cc(N3CCN(C)CC3)nc(Sc3ccc(NC(=O)C4CC4)cc3)n2)n[nH]1 [Tozasertib] (partner 0.1 µM)', 'relative viability', 0.447),
  ('CC(C)Oc1cc(Nc2nc(N[C@@H](C)c3ccc(F)cn3)ncc2Cl)n[nH]1 [AZ23] + CS(=O)(=O)N1CCN(Cc2cc3nc(-c4cccc5[nH]ncc45)nc(N4CCOCC4)c3s2)CC1 [Pictilisib] (partner 1 µM)', 'relative viability', 0.417),
  ('CC(C)Oc1cc(Nc2nc(N[C@@H](C)c3ccc(F)cn3)ncc2Cl)n[nH]1 [AZ23] + Cc1nc(NC(=O)N2CCC[C@H]2C(N)=O)sc1-c1ccnc(C(C)(C)C(F)(F)F)c1 [Alpelisib] (partner 2 µM)', 'relative viability', 1.33);

Attention now shifts to the item below.
Suppose we examine the molecule CC(C)Oc1cc(Nc2nc(N[C@@H](C)c3ccc(F)cn3)ncc2Cl)n[nH]1 [AZ23] + CC(C)C[C@H](NC(=O)[C@H](Cc1ccccc1)NC(=O)c1cnccn1)B(O)O [Bortezomib] (partner 0.002 µM) ; what relative viability value has been reported?
1.04

====

Tested on: RERF-LC-KJ
Experiment: relative viability (nuclei count vs DMSO), 5 days (fraction); higher = more cells survive
Details: first compound 0.04 µM
measured-property: relative viability
Returns: the value as a bare number; no unit string appended.

INSERT INTO results (compound, value) VALUES
  ('C[C@@H]1CN(CC(=O)Nc2ccc3c(c2)Cc2cccc(-c4cc(=O)cc(N5CCOCC5)o4)c2S3)C[C@H](C)O1 + Cc1cc(Nc2cc(N3CCN(C)CC3)nc(Sc3ccc(NC(=O)C4CC4)cc3)n2)n[nH]1 [Tozasertib] (partner 0.1 µM)', 0.545),
  ('COc1cc(N2CCC(C(N)=O)CC2)ccc1Nc1nc(N)c(Cl)c(Nc2ccccc2S(=O)(=O)C(C)C)n1 [HG-5-88-01] + Cc1cc(Nc2cc(N3CCN(C)CC3)nc(Sc3ccc(NC(=O)C4CC4)cc3)n2)n[nH]1 [Tozasertib] (partner 0.1 µM)', 0.58),
  ('C[C@@H]1CN(CC(=O)Nc2ccc3c(c2)Cc2cccc(-c4cc(=O)cc(N5CCOCC5)o4)c2S3)C[C@H](C)O1 + O=C(c1cc(Cc2n[nH]c(=O)c3ccccc23)ccc1F)N1CCN(C(=O)C2CC2)CC1 [Olaparib] (partner 8 µM)', 0.917);

Here is the next item to consider.
Please state recorded relative viability (tested on RERF-LC-KJ) of COc1cc(N2CCC(C(N)=O)CC2)ccc1Nc1nc(N)c(Cl)c(Nc2ccccc2S(=O)(=O)C(C)C)n1 [HG-5-88-01] + CS(=O)(=O)CCNCc1ccc(-c2ccc3ncnc(Nc4ccc(OCc5cccc(F)c5)c(Cl)c4)c3c2)o1 [Lapatinib] (partner 2 µM)
0.833

====

Tested on: NCI-H322M
Test: relative viability (nuclei count vs DMSO), 5 days (fraction); higher = more cells survive
Conditions: first compound 8 µM
measured-property: relative viability
Give the figure by itself; no unit, no explanation.

Which measured relative viability value corresponds to CCCCCCCCCCCC1=C(O)C(=O)C=C(O)C1=O [Embelin] + COc1cccc2cc(-c3nc([C@H]4CC[C@H](C(=O)O)CC4)n4ncnc(N)c34)[nH]c12 [OSI-027] (partner 0.5 µM) ?
0.512

Give its relative viability value. Item: CCCCCCCCCCCC1=C(O)C(=O)C=C(O)C1=O [Embelin] + COc1cc2c(Oc3ccc(NC(=O)C4(C(=O)Nc5ccc(F)cc5)CC4)cc3F)ccnc2cc1OCCCN1CCOCC1 [Foretinib] (partner 0.25 µM)
0.961

Please give the measured relative viability for this compound: CCCCCCCCCCCC1=C(O)C(=O)C=C(O)C1=O [Embelin] + CC(C)C[C@H](NC(=O)[C@H](Cc1ccccc1)NC(=O)c1cnccn1)B(O)O [Bortezomib] (partner 0.002 µM)
1.29

Request the reported relative viability associated with CCCCCCCCCCCC1=C(O)C(=O)C=C(O)C1=O [Embelin] + O=C(c1cc(Cc2n[nH]c(=O)c3ccccc23)ccc1F)N1CCN(C(=O)C2CC2)CC1 [Olaparib] (partner 8 µM)
0.774

Could you share which relative viability value was measured for CCCCCCCCCCCC1=C(O)C(=O)C=C(O)C1=O [Embelin] + CS(=O)(=O)N1CCN(Cc2cc3nc(-c4cccc5[nH]ncc45)nc(N4CCOCC4)c3s2)CC1 [Pictilisib] (partner 1 µM) ?
0.478

Data request, read-out relative viability, for CCCCCCCCCCCC1=C(O)C(=O)C=C(O)C1=O [Embelin] + N=C(N)NC(=N)NCCc1ccccc1 [Phenformin] (partner 250 µM)
0.677

Tell me the measured relative viability of CCCCCCCCCCCC1=C(O)C(=O)C=C(O)C1=O [Embelin] + CC(=O)Nc1cccc(-n2c(=O)n(C3CC3)c(=O)c3c(Nc4ccc(I)cc4F)n(C)c(=O)c(C)c32)c1 [Trametinib] (partner 0.02 µM) , please.
0.49
